- testDescription: Toxicity against brine shrimp at 125 ug/mL
- Type: organism-based
- runParameters: artemia, in vivo; read-out: Activity
measuredEndpoint: mortality at 125 ug/mL (%)

compound="CC/C=C\\C[C@H]1O[C@@H]1/C=C/C1CCCCCCCC(=O)O1 (stereo partly specified)" reportedvalue=100
